Recorded LogPe (cm/sec) n1 by entry
- experimental.protocol: Parallel artificial membrane permeability assay (PAMPA)
- measurement.parameters: replicate n1, calculation section; 10µM, PBS pH 7.4/7.4, 6h
readout.kind: LogPe (cm/sec) n1

[
  {
    "smiles": "O=C1NC(=O)C(=Cc2ccc(N3CCOCC3)cc2[N+](=O)[O-])C(=O)N1",
    "readout.kind": "LogPe (cm/sec) n1",
    "reported.result": -9.34
  },
  {
    "smiles": "O=C1NC(=O)C(=C/C=C/c2ccccc2)C(=O)N1",
    "readout.kind": "LogPe (cm/sec) n1",
    "reported.result": -5.25
  },
  {
    "smiles": "COc1cc(C=C2C(=O)NC(=O)NC2=O)ccc1O",
    "readout.kind": "LogPe (cm/sec) n1",
    "reported.result": -6.16
  },
  {
    "smiles": "O=C1NC(=O)C(=Cc2ccc(-c3ccccc3F)[nH]2)C(=O)N1",
    "readout.kind": "LogPe (cm/sec) n1",
    "reported.result": -5.97
  }
]

* * *

- system: HsDHODH (Homo sapiens)
- Construct: made in house
- Sequence (Q02127 whole entry): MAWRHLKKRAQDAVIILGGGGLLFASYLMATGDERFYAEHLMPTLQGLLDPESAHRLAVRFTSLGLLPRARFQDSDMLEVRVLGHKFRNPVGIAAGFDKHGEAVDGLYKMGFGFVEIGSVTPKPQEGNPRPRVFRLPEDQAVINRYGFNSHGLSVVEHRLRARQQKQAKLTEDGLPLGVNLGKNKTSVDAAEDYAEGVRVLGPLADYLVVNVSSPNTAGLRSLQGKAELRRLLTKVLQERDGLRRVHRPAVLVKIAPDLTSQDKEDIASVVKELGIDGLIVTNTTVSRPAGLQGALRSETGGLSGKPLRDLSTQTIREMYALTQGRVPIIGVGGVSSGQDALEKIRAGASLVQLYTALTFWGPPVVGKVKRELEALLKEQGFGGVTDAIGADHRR
- experimental.protocol: Selectivity assay: HsDHODH single-dose inhibition (DCIP reduction)
- Format: biochemical
- measurement.parameters: read-out: Single dose (4h) % activity

[
  {
    "smiles": "O=C1NC(=O)C(=Cc2ccccc2)C(=O)N1",
    "unit.name": "%",
    "activity at 100 µM": 79
  },
  {
    "smiles": "O=C1NC(=O)C(=Cc2ccc(O)c([N+](=O)[O-])c2)C(=O)N1",
    "unit.name": "%",
    "activity at 100 µM": 92
  },
  {
    "smiles": "O=C1NC(=O)C(=Cc2cccc(O)c2)C(=O)N1",
    "unit.name": "%",
    "activity at 100 µM": 96
  },
  {
    "smiles": "O=C1NC(=O)C(=Cc2ccc(N3CCOCC3)cc2[N+](=O)[O-])C(=O)N1",
    "unit.name": "%",
    "activity at 100 µM": 86
  },
  {
    "smiles": "O=C1NC(=O)C(Cc2ccc(-c3ccccc3)cc2)C(=O)N1",
    "unit.name": "%",
    "activity at 100 µM": 102
  },
  {
    "smiles": "O=C1NC(=O)C(Cc2ccc(N3CCOCC3)cc2[N+](=O)[O-])C(=O)N1",
    "unit.name": "%",
    "activity at 100 µM": 89
  },
  {
    "smiles": "COc1cc(C=C2C(=O)NC(=O)NC2=O)ccc1O",
    "unit.name": "%",
    "activity at 100 µM": 83
  },
  {
    "smiles": "O=C1NC(=O)C(Cc2cccc(O)c2)C(=O)N1",
    "unit.name": "%",
    "activity at 100 µM": 86
  },
  {
    "smiles": "O=C1NC(=O)C(CC=Cc2ccccc2)C(=O)N1",
    "unit.name": "%",
    "activity at 100 µM": 98
  },
  {
    "smiles": "O=C1NC(=O)C(=Cc2ccc(C(=O)O)cc2)C(=O)N1",
    "unit.name": "%",
    "activity at 100 µM": 99
  },
  {
    "smiles": "O=C1NC(=O)C(=C/C=C/c2ccccc2)C(=O)N1",
    "unit.name": "%",
    "activity at 100 µM": 91
  },
  {
    "smiles": "O=C1NC(=O)C(=Cc2ccc(-c3ccccc3)cc2)C(=O)N1",
    "unit.name": "%",
    "activity at 100 µM": 78
  }
]

* * *

activity at 1.5625 µM overview
- system: LbDHODH (Leishmania braziliensis, UniProt E9AI53)
- Sequence (E9AI53 entry or part of it): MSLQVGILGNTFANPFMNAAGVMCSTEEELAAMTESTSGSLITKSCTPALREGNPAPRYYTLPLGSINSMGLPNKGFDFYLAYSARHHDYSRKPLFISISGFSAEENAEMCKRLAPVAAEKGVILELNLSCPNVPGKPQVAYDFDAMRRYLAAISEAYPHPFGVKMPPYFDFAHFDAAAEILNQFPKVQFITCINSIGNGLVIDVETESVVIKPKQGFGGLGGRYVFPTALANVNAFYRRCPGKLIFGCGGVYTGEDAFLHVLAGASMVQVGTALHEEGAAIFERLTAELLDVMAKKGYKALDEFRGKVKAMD
- experimental.protocol: biochemical
- measurement.parameters: 4 h, pH 8.15, read-out: LbDHODH Activity±SD (%)
readout.kind: activity at 1.5625 µM (%)

[
  {
    "smiles": "O=C1NC(=O)C(=Cc2ccccc2)C(=O)N1",
    "readout.kind": "activity at 1.5625 µM",
    "reported.result": 84
  },
  {
    "smiles": "O=C1NC(=O)C(=Cc2cccc(O)c2)C(=O)N1",
    "readout.kind": "activity at 1.5625 µM",
    "reported.result": 72
  },
  {
    "smiles": "COc1cc(C=C2C(=O)NC(=O)NC2=O)ccc1O",
    "readout.kind": "activity at 1.5625 µM",
    "reported.result": 96
  },
  {
    "smiles": "O=C1NC(=O)C(=Cc2ccc(N3CCOCC3)cc2[N+](=O)[O-])C(=O)N1",
    "readout.kind": "activity at 1.5625 µM",
    "reported.result": 85
  },
  {
    "smiles": "O=C1NC(=O)C(=Cc2ccc(O)c([N+](=O)[O-])c2)C(=O)N1",
    "readout.kind": "activity at 1.5625 µM",
    "reported.result": 72
  },
  {
    "smiles": "O=C1NC(=O)C(=Cc2ccc(-c3ccccc3)cc2)C(=O)N1",
    "readout.kind": "activity at 1.5625 µM",
    "reported.result": 83.3
  },
  {
    "smiles": "O=C1NC(=O)C(=Cc2ccc(C(=O)O)cc2)C(=O)N1",
    "readout.kind": "activity at 1.5625 µM",
    "reported.result": 80
  }
]

* * *

- experimental.protocol: Cell viability / cytotoxicity assay (PrestoBlue, 72 h)
- Type: cell-based
- measurement.parameters: human

[
  {
    "molecule": "C[C@@H]1[C@H](O)[C@@H](C)/C=C/C=C/C=C/C=C/C=C/C=C/C=C/[C@H](O[C@@H]2O[C@H](C)[C@@H](O)[C@H](N)[C@@H]2O)C[C@@H]2O[C@](O)(C[C@@H](O)C[C@@H](O)[C@H](O)CC[C@@H](O)C[C@@H](O)CC(=O)O[C@H]1C)C[C@H](O)[C@H]2C(=O)O [Amp. B, Amphotericin B, reference compound]",
    "unit.name": "µM",
    "CC50 at 72 h": 6
  }
]

* * *

- system: LbDHODH (Leishmania braziliensis, UniProt E9AI53)
- experimental.protocol: biochemical
- measurement.parameters: read-out: Single dose (4h) % activity

[
  {
    "smiles": "O=C1NC(=O)C(Cc2ccc(C(=O)O)cc2)C(=O)N1",
    "unit.name": "%",
    "activity at 100 µM": 69
  },
  {
    "smiles": "O=C1NC(=O)C(Cc2ccc(N3CCOCC3)cc2[N+](=O)[O-])C(=O)N1",
    "unit.name": "%",
    "activity at 100 µM": 80
  },
  {
    "smiles": "O=C1NC(=O)C(=Cc2ccc(N3CCOCC3)cc2[N+](=O)[O-])C(=O)N1",
    "unit.name": "%",
    "activity at 100 µM": 7
  },
  {
    "smiles": "O=C1NC(=O)C(=C/C=C/c2ccccc2)C(=O)N1",
    "unit.name": "%",
    "activity at 100 µM": 3
  },
  {
    "smiles": "COc1cc(CC2C(=O)NC(=O)NC2=O)ccc1O",
    "unit.name": "%",
    "activity at 100 µM": 60
  }
]

* * *

Each item that follows carries a reported Raw data: analyte peak area, T=10.
- measurement.parameters: mouse liver microsomes, 10 min, replicate 2 (right block), raw LC-MS area
readout.kind: Raw data: analyte peak area, T=10

[
  {
    "compound": "O=C1NC(=O)C(=C/C=C/c2ccccc2)C(=O)N1",
    "reported.result": 0
  },
  {
    "compound": "O=C(O)Cc1ccccc1Nc1c(Cl)cccc1Cl",
    "reported.result": 17016
  },
  {
    "compound": "CC(C)NCC(O)COc1cccc2ccccc12 (stereo not shown)",
    "reported.result": 43475
  },
  {
    "compound": "O=C1NC(=O)C(=Cc2ccc(N3CCOCC3)cc2[N+](=O)[O-])C(=O)N1",
    "reported.result": 21617
  }
]

* * *

compounds and their reported activity at 3.125 µM
- system: LbDHODH (Leishmania braziliensis)
- experimental.protocol: biochemical
- measurement.parameters: 0 h, pH 8.15, read-out: LbDHODH Activity±SD (%)

[
  {
    "compound": "O=C1NC(=O)C(=Cc2ccc(-c3ccccc3)cc2)C(=O)N1 [2f]",
    "activity at 3.125 µM (%)": 94
  },
  {
    "compound": "O=C1NC(=O)C(=Cc2ccc(C(=O)O)cc2)C(=O)N1 [2b]",
    "activity at 3.125 µM (%)": 97
  },
  {
    "compound": "O=C1NC(=O)C(=Cc2ccccc2)C(=O)N1 [2a]",
    "activity at 3.125 µM (%)": 106
  },
  {
    "compound": "O=C1NC(=O)C(=Cc2ccc(O)c([N+](=O)[O-])c2)C(=O)N1 [2d]",
    "activity at 3.125 µM (%)": 46
  },
  {
    "compound": "O=C1NC(=O)C(=C/C=C/c2ccccc2)C(=O)N1 [2i]",
    "activity at 3.125 µM (%)": 11
  },
  {
    "compound": "O=C1NC(=O)C(=Cc2ccc(N3CCOCC3)cc2[N+](=O)[O-])C(=O)N1 [2e]",
    "activity at 3.125 µM (%)": 67
  },
  {
    "compound": "COc1cc(C=C2C(=O)NC(=O)NC2=O)ccc1O [2c]",
    "activity at 3.125 µM (%)": 77
  },
  {
    "compound": "O=C1NC(=O)C(=Cc2cccc(O)c2)C(=O)N1 [2g]",
    "activity at 3.125 µM (%)": 78
  }
]
